These data points were gathered from the supplement of paper PMC8728848.

# target_system: Gal3S6S(b1-4)GlcNAc6S
# assay_notes: glycan array binding signal (z-score within array); higher = stronger binding
# protocol_conditions: glycan notation: IUPAC condensed, linker removed
About 410 targets per protein were measured; listed, in parts, are those with the strongest signals and a random draw of the rest.
binders and their reported glycan array binding signal (z-score)
Enter the number alone.

For orientation, consider the following solved cases.
- rPitB (Streptococcus pneumoniae), A0A0I7U739 (protein) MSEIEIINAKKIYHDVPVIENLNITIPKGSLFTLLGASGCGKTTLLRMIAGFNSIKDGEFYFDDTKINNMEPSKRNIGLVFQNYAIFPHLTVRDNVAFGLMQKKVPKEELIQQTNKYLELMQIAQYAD: -0.233
- CBM32-1 (Clostridium perfringens) (protein) MGSSHHHHHHSSGLVPRGSHMASGVEITEGVTVTAKGNTEGNTADLAIDGDLSTYWESSNDYKWIEVDLGGIYELSKIEIFNKDEAVYKYNIYASEDGENFNKIAYKNNDNVSDSNGNVHTIDNVRAGKIRIDVVQNSNSDRVNIAEINVFG: 5.08
- HBHA-Rv (Mycobacterium tuberculosum), P0A5P6 (protein) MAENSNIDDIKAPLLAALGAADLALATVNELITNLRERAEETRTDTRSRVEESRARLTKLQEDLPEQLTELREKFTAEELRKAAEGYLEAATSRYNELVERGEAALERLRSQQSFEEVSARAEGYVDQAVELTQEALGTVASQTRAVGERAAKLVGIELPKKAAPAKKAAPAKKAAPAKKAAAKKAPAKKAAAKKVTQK: 1.29

// below: glycan array binding signal (z-score) requested for another binder
Suppose we examine the binder SBD (Rhizopus oryzae), P07683 (protein) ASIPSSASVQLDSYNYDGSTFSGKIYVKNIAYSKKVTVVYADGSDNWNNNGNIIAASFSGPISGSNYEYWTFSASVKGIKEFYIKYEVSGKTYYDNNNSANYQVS ; what glycan array binding signal (z-score) value has been reported?
0.19
